# Galium plant response rating (0 to 100 scale) per record follows
test system: galium (catchweed bedstraw, Galium aparine); test: Test A postemergence, visual plant response rating; assay type: in vivo; conditions: 500 g ai/ha, postemergence; 0 is no effect, 100 is complete control
experimental-readout: Galium plant response rating (0 to 100 scale)

>  <compound>
CO/N=C(/c1cccc(C)c1C)c1c(O)c(C)nn(C)c1=O [Compound 23]

>  <experimental-result>
60

$$$$
>  <compound>
CO/N=C(/c1c(O)c(C)nn(C)c1=O)c1ccc(F)c2ccccc12 [Compound 75]

>  <experimental-result>
100

$$$$
>  <compound>
CON=C(c1cccc(C(F)(F)F)c1Cl)c1c(O)c(C)nn(C)c1=O [Compound 102]

>  <experimental-result>
70

$$$$
>  <compound>
Cc1nn(C)c(=O)c(C(=NOCC=CCl)c2ccc(F)c3ccccc23)c1O [Compound 106]

>  <experimental-result>
90

$$$$
>  <compound>
CO/N=C(\c1cccc(C)c1F)c1c(O)c(C)nn(C)c1=O [Compound 50]

>  <experimental-result>
70

$$$$
>  <compound>
CO/N=C(\c1c(O)c(C)nn(C)c1=O)c1cccc2ccccc12 [Compound 26]

>  <experimental-result>
100

$$$$
>  <compound>
C#CCn1nc(C)c(O)c(C(=NOC)c2cccc(Cl)c2)c1=O (mixture of isomers) [Compound 3]

>  <experimental-result>
70

$$$$
>  <compound>
CCc1ccccc1/C(=N\OC)c1c(O)c(C)nn(C)c1=O [Compound 69]

>  <experimental-result>
80

$$$$
>  <compound>
CCO/N=C(/c1cccc(C)c1C)c1c(O)c(C)nn(C)c1=O [Compound 24]

>  <experimental-result>
60

$$$$
